// data source = ChEMBL document CHEMBL4043153

Test system: Trypanosoma brucei rhodesiense
procedure_summary: Antiparasitic activity against Trypanosoma brucei rhodesiense STIB 900 trypomastigote bloodstream form assessed as growth inhibition at 4.8 ug/ml after 72 hrs by resazurin dye-based fluorometric analysis relative to control
Type: functional
measurement_context: STIB 900, 72 h, read-out: GI
reported_metric: inhibition of growth at 4.8 µg/mL (%)
A number alone suffices; assume %.

Here are 3 compounds together with their reported answers.
{"columns": ["compound", "experimental_system", "result_value"],
 "data": [
  ["O=S(=O)(c1ccc(C(F)(F)F)cc1)N1CCc2ccccc21", "Trypanosoma brucei rhodesiense", 0],
  ["CC(C)(C)c1ccc(S(=O)(=O)N2CCc3ccccc32)cc1", "Trypanosoma brucei rhodesiense", 5.8],
  ["CC(=O)Nc1ccc(S(=O)(=O)N2c3ccccc3CC2C)cc1 (stereo unspecified)", "Trypanosoma brucei rhodesiense", 1.7]
]}

## Task Request the reported inhibition of growth at 4.8 µg/mL associated with O=S(=O)(c1ccc(F)cc1)N1CCc2ccccc21
## Result 19.2

## Task Fill in the blank: the reported inhibition of growth at 4.8 µg/mL of COc1ccc(S(=O)(=O)N2c3ccccc3CC2C)cc1 (stereo unspecified) is ____.
## Result 4.4

## Task Given Cc1cc(C)c(C)c(S(=O)(=O)N2CCCc3ccccc32)c1C , state its recorded inhibition of growth at 4.8 µg/mL.
## Result 3.7

---

Overview of reported pIC50 across a group of molecules:
Test system: Trypanosoma cruzi
procedure_summary: Antiparasitic activity against Trypanosoma cruzi Tulahuen C4 intracellular amastigotes infected in rat L6 cells
Type: functional, cell-based
Scale for pIC50: -log10 of concentration given in mol/L; no unit attached.

{"columns": ["smiles_entry", "pIC50"],
 "data": [
  ["O=[N+]([O-])c1ccc(S(=O)(=O)N2CCCc3ccccc32)cc1", 4.94],
  ["O=S(=O)(c1ccc(Cl)cc1)N1CCCc2ccccc21", 4.80]
]}

Proceeding to the next molecule to report its pIC50.
## Task What value of pIC50 has been reported for the following molecule? O=S(=O)(c1ccc(Br)cc1)N1CCCc2ccccc21
## Result 4.86

---

The entries below come with measured inhibition of growth at 0.8 µg/mL values attached.
System: Trypanosoma cruzi
procedure_summary: Antiparasitic activity against Trypanosoma cruzi Tulahuen C4 intracellular amastigotes infected in rat L6 cells assessed as growth inhibition at 0.8 ug/ml after 96 hrs by CPRG/Nonidet reagent based photometric analysis relative to control
Type: functional
measurement_context: Tulahuen C4, L6, 96 h, read-out: GI
Respond with the bare value in %.

{"columns": ["compound", "experimental_system", "inhibition of growth at 0.8 µg/mL / %"],
 "data": [
  ["CC(C)(C)c1ccc(S(=O)(=O)N2CCCc3ccccc32)cc1", "Trypanosoma cruzi", 0],
  ["CC1Cc2ccccc2N1S(=O)(=O)c1ccc(F)cc1 (configuration not stated)", "Trypanosoma cruzi", 0],
  ["O=S(=O)(c1ccc(Br)cc1)n1ccc2ccccc21", "Trypanosoma cruzi", 0],
  ["O=[N+]([O-])c1ccccc1S(=O)(=O)N1CCc2ccccc21", "Trypanosoma cruzi", 0]
]}

## Task I would be grateful if you could share the reported inhibition of growth at 0.8 µg/mL for O=[N+]([O-])c1cccc(S(=O)(=O)N2CCc3ccccc32)c1 .
## Result 36.4

## Task I'd like to know its inhibition of growth at 0.8 µg/mL. The compound in question is CC(=O)c1ccc(S(=O)(=O)n2ccc3ccccc32)cc1
## Result 0

## Task For the compound shown here, CC(C)(C)c1ccc(S(=O)(=O)N2CCc3ccccc32)cc1 , give the reported inhibition of growth at 0.8 µg/mL.
## Result 5.2

## Task I have this compound here, O=S(=O)(c1cccc(C(F)(F)F)c1)n1ccc2ccccc21 , and I need its recorded inhibition of growth at 0.8 µg/mL.
## Result 0

## Task // query inhibition of growth at 0.8 µg/mL value for entry CC1Cc2ccccc2N1S(=O)(=O)c1ccc([N+](=O)[O-])cc1 (configuration not stated)
## Result 19.4

## Task I'd like to know its inhibition of growth at 0.8 µg/mL. The compound in question is CC1Cc2ccccc2N1S(=O)(=O)c1cccc([N+](=O)[O-])c1 (configuration not stated)
## Result 2.5

## Task What value of inhibition of growth at 0.8 µg/mL has been recorded for this entry: O=S(=O)(c1ccc(Cl)cc1)N1CCc2ccccc21
## Result 0

## Task Request the reported inhibition of growth at 0.8 µg/mL associated with CC(=O)Nc1ccc(S(=O)(=O)N2c3ccccc3CC2C)cc1 (configuration not stated)
## Result 0

## Task What value of inhibition of growth at 0.8 µg/mL has been reported for the following compound? O=S(=O)(c1ccc(C(F)(F)F)cc1)N1CCc2ccccc2C1
## Result 0

## Task Form field: reported inhibition of growth at 0.8 µg/mL of CC(=O)c1ccc(S(=O)(=O)n2nnc3ccccc32)cc1
## Result 0

## Task What inhibition of growth at 0.8 µg/mL value was documented for this compound, O=S(=O)(c1ccc(C(F)(F)F)cc1)n1nnc2ccccc21 ?
## Result 5.5

## Task Fill blank: measured inhibition of growth at 0.8 µg/mL of the compound Cc1ccc(S(=O)(=O)N2c3ccccc3CC2C)cc1 (configuration not stated) is ____.
## Result 0

## Task Entry O=C(Cn1ccnc1[N+](=O)[O-])NCc1ccccc1 has what inhibition of growth at 0.8 µg/mL?
## Result 63.3

## Task Please report the recorded inhibition of growth at 0.8 µg/mL for CC1CCc2ccccc2N1S(=O)(=O)c1ccc(C(F)(F)F)cc1 (configuration not stated) .
## Result 5.3

## Task Requested read-out: inhibition of growth at 0.8 µg/mL. Entry: CC(=O)c1ccc(S(=O)(=O)N2c3ccccc3CC2C)cc1 (configuration not stated)
## Result 0

## Task # lookup: inhibition of growth at 0.8 µg/mL of COc1ccc(S(=O)(=O)N2c3ccccc3CC2C)cc1 (configuration not stated)
## Result 1.8

## Task Returns the measured inhibition of growth at 0.8 µg/mL for the input compound. Input: CC(=O)c1ccc(S(=O)(=O)N2c3ccccc3CCC2C)cc1 (configuration not stated)
## Result 0

## Task Param item = Cc1cc(C)c(C)c(S(=O)(=O)n2nnc3ccccc32)c1C ; retrieve measured inhibition of growth at 0.8 µg/mL.
## Result 0

## Task Item Cc1cc(C)c(C)c(S(=O)(=O)N2c3ccccc3CCC2C)c1C (configuration not stated) has what recorded inhibition of growth at 0.8 µg/mL?
## Result 9.7
